Overview of reported viability, T/C across a group of compounds:
Tested on: 565726-208-R1-J5-PDC complex spheroids, growth inhibition
Assay Comment: Anticancer human tumor 565726-208-R1-J5-PDC patient-derived pancreatic adenocarcinoma cell line growth inhibition [RAS]
Condition: second compound 0.00316 µM; first compound 0.01 µM; active compounds read low
Source text: RAS pathway inhibitors in Combinations in Complex Spheroids A high-throughput screen of multi-cell type tumor spheroids was designed to identify active combinations of RAS pathway inhibitors and targeted small molecules. Complex spheroids include a stromal component modeled by human endothelial cells (HUVEC) and fibroblasts modeled by human mesenchymal stem cells (MSCs). […] Compounds. […] If the clinical Cmax for an agent had not been determined, the highest concentration tested was 10 microM. […]
Supply the numeric figure in %, leaving out any unit text.

[[record]]
compound = "CCN1CCN(Cc2ccc(Nc3ncc(F)c(-c4cc(F)c5nc(C)n(C(C)C)c5c4)n3)nc2)CC1 + C=CC(=O)N1CCN(c2nc(OCC3CCCN3C)nc3c(F)c(-c4nc(N)cc(C)c4C(F)(F)F)c(Cl)cc23)C(C)C1"
value_type = "viability, T/C"
measure_unit = "%"
quantitative_readout = 137

[[record]]
compound = "C=CC(=O)Nc1cc(Nc2nccc(-c3cn(C)c4ccccc34)n2)c(OC)cc1N(C)CCN(C)C + C=CC(=O)N1CCN(c2nc(OCC3CCCN3C)nc3c(F)c(-c4nc(N)cc(C)c4C(F)(F)F)c(Cl)cc23)C(C)C1"
value_type = "viability, T/C"
measure_unit = "%"
quantitative_readout = 171

[[record]]
compound = "O=C(c1ccc(F)c(F)c1Nc1ccc(I)cc1F)N1CC(O)([C@@H]2CCCCN2)C1 + C=CC(=O)N1CCN(c2nc(OCC3CCCN3C)nc3c(F)c(-c4nc(N)cc(C)c4C(F)(F)F)c(Cl)cc23)C(C)C1"
value_type = "viability, T/C"
measure_unit = "%"
quantitative_readout = 142

[[record]]
compound = "Nc1ccn(C2OC(CO)C(O)C2(F)F)c(=O)n1 (stereo not given) + C=CC(=O)N1CCN(c2nc(OCC3CCCN3C)nc3c(F)c(-c4nc(N)cc(C)c4C(F)(F)F)c(Cl)cc23)C(C)C1"
value_type = "viability, T/C"
measure_unit = "%"
quantitative_readout = 151


Tell me the measured viability, T/C of CC(C)n1nc(-c2ccc3oc(N)nc3c2)c2c(N)ncnc21 + C=CC(=O)N1CCN(c2nc(OCC3CCCN3C)nc3c(F)c(-c4nc(N)cc(C)c4C(F)(F)F)c(Cl)cc23)C(C)C1 , please.
62.3

---

System: 565726-208-R1-J5-PDC complex spheroids, growth inhibition
Assay Comment: Anticancer human tumor 565726-208-R1-J5-PDC cell line growth inhibition [RAS];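 further: spheroids exposed to compounds for seven days before readout; 100% = DMSO vehicle control viability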
Condition: second compound 0.03 µM; first compound 10 µM; active compounds read low
viability, T/C under 20% gets y, anything at or over 20% gets n.

Use these answered entries as a reference point.
[[record]]
compound = "Cc1nc(N2CCC3(CC2)COC(C)C3N)c(CO)nc1Sc1ccnc(N)c1Cl (stereo not given) + CCn1c(-c2cc(N3CCN(C)CC3)cnc2C(C)OC)c2c3cc(ccc31)-c1csc(n1)CC(NC(=O)C1CC1C)C(=O)N1CCCC(N1)C(=O)OCC(C)(C)C2"
class = "y"

[[record]]
compound = "NC1c2ccccc2OC12CCN(c1cnc3c(N4CCCc5ncccc54)n[nH]c3n1)CC2 (stereo not given) + CCn1c(-c2cc(N3CCN(C)CC3)cnc2C(C)OC)c2c3cc(ccc31)-c1csc(n1)CC(NC(=O)C1CC1C)C(=O)N1CCCC(N1)C(=O)OCC(C)(C)C2"
class = "y"

[[record]]
compound = "CC(Nc1ccc2c(c1)OCCn1cc(N3C(=O)OCC3C(F)F)nc1-2)C(N)=O (stereo not given) + CCn1c(-c2cccnc2C(C)OC)c2c3cc(ccc31)N1CCOC(CC(NC(=O)C(C(C)C)N(C)C(=O)C3(F)CCN(C(=O)C#CC(C)(C)N(C)C)CC3)C(=O)N3CCCC(N3)C(=O)OCC(C)(C)C2)C1"
class = "n"

[[record]]
compound = "CC(=O)OC12COC1CC(O)C1(C)C(=O)C(O)C3=C(C)C(OC(=O)C(O)C(NC(=O)OC(C)(C)C)c4ccccc4)CC(O)(C(OC(=O)c4ccccc4)C21)C3(C)C (stereo not given) + CCn1c(-c2cccnc2C(C)OC)c2c3cc(ccc31)N1CCOC(CC(NC(=O)C(C(C)C)N(C)C(=O)C3(F)CCN(C(=O)C#CC(C)(C)N(C)C)CC3)C(=O)N3CCCC(N3)C(=O)OCC(C)(C)C2)C1"
class = "n"


# TODO verify viability, T/C < 20% strictly for this compound: CC(=O)OC12COC1CC(O)C1(C)C(=O)C(O)C3=C(C)C(OC(=O)C(O)C(NC(=O)OC(C)(C)C)c4ccccc4)CC(O)(C(OC(=O)c4ccccc4)C21)C3(C)C (stereo not given) + CCn1c(-c2cc(N3CCN(C)CC3)cnc2C(C)OC)c2c3cc(ccc31)-c1csc(n1)CC(NC(=O)C1CC1C)C(=O)N1CCCC(N1)C(=O)OCC(C)(C)C2
y
